Molecular target: B2 bradykinin receptor (Homo sapiens, UniProt P30411); further: in other assays of this panel Not Active means under 50% inhibition at 10 µM
Sequence (P30411 whole entry): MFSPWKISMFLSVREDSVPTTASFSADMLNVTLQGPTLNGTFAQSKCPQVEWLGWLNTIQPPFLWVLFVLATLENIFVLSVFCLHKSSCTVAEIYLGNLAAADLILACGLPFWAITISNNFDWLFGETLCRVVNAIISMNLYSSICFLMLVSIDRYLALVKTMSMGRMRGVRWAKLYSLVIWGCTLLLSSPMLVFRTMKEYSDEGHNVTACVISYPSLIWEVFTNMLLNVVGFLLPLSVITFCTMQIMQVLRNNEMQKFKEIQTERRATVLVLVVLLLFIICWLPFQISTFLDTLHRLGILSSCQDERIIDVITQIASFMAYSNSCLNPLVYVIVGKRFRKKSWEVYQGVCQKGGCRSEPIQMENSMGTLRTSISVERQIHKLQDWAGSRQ
Format: cell membranes, Membrane
Details: chem-1
PARAMETER: IC50

Solved cases below.
1. C[C@@H]1C[C@H]2[C@@H]3CCC4=CC(=O)C=C[C@]4(C)[C@@]3(F)[C@@H](O)C[C@]2(C)[C@@]1(O)C(=O)CO ... Not Active
2. COC1=C(OC)C(=O)C(CCCCCCCCCCO)=C(C)C1=O ... Not Active
3. C[n+]1ccccc1/C=N/O.[Cl-] [PRALIDOXIME CHLORIDE] ... Not Active
4. O=C1Nc2ccc(Cl)cc2C(c2ccccc2Cl)=NC1O (centres undefined) ... Not Active
5. CN(C/C=C/C#CC(C)(C)C)Cc1cccc2ccccc12 ... Not Active
6. Cc1ccc(NC(=O)c2ccc(CN3CCN(C)CC3)cc2)cc1Nc1nccc(-c2cccnc2)n1 ... Not Active
7. CCC1(CCC(C)C)C(=O)NC(=O)NC1=O ... Not Active
8. O=C(N/N=C/c1ccc([N+](=O)[O-])o1)c1cc([N+](=O)[O-])cc([N+](=O)[O-])c1O ... Not Active

Consider the compound shown here: O=C(O)CCNC(=O)c1ccccc1 What is its recorded IC50? Not Active
